tested on: UACC-62; assay: Growth inhibition of human UACC62 cells assessed as growth inhibition at 10 uM by sulforhodamine B assay; assay type: functional; settings: read-out: GI
reported property: inhibition of growth at 10 µM (%)

C/C=C(/C)C(=O)O[C@@H]1CC(C)(C)C[C@H]2C3=CC[C@@H]4[C@@]5(C)CCC(=O)C(C)(C)[C@@H]5CC[C@@]4(C)[C@]3(C)CC[C@@]12C(=O)O [LANTADENE A] | 50.1
CC1(C)C[C@@H](O)[C@]2(C(=O)O)CC[C@]3(C)C(=CC[C@@H]4[C@@]5(C)C/C(=C\C=C\c6ccccc6)C(=O)C(C)(C)[C@@H]5CC[C@]43C)[C@@H]2C1 | 49.6
CC(C)=CC(=O)O[C@@H]1CC(C)(C)C[C@H]2C3=CC[C@@H]4[C@@]5(C)CC[C@H](O)C(C)(C)[C@@H]5CC[C@@]4(C)[C@]3(C)CC[C@@]12C(=O)O [Reduced Lantadene B] | 32.8
COc1cc(/C=C2\C[C@]3(C)[C@H]4CC=C5[C@@H]6CC(C)(C)C[C@@H](O)[C@]6(C(=O)O)CC[C@@]5(C)[C@]4(C)CC[C@H]3C(C)(C)C2=O)ccc1O | 25
CC1(C)C[C@@H](O)[C@]2(C(=O)O)CC[C@]3(C)C(=CC[C@@H]4[C@@]5(C)CC[C@H](O)C(C)(C)[C@@H]5CC[C@]43C)[C@@H]2C1 | 11.8
CC1(C)C[C@@H](O)[C@]2(C(=O)O)CC[C@]3(C)C(=CC[C@@H]4[C@@]5(C)CCC(=O)C(C)(C)[C@@H]5CC[C@]43C)[C@@H]2C1 | 19.5
CC(C)=CC(=O)O[C@@H]1CC(C)(C)C[C@H]2C3=CC[C@@H]4[C@@]5(C)CCC(=O)C(C)(C)[C@@H]5CC[C@@]4(C)[C@]3(C)CC[C@@]12C(=O)O | 42.2

---

# growth at 100 µM values compiled below
test system: MCF7; test: Growth inhibition of human MCF7 cells assessed as cell growth at 10^-4 M by sulforhodamine B assay; format: functional; settings: read-out: Activity
reported property: growth at 100 µM (%)

C/C=C(/C)C(=O)O[C@@H]1CC(C)(C)C[C@H]2C3=CC[C@@H]4[C@@]5(C)CC[C@H](O)C(C)(C)[C@@H]5CC[C@@]4(C)[C@]3(C)CC[C@@]12C(=O)O | -39
CC(C)=CC(=O)O[C@@H]1CC(C)(C)C[C@H]2C3=CC[C@@H]4[C@@]5(C)CC[C@H](O)C(C)(C)[C@@H]5CC[C@@]4(C)[C@]3(C)CC[C@@]12C(=O)O | -43
C/C=C(/C)C(=O)O[C@@H]1CC(C)(C)C[C@H]2C3=CC[C@@H]4[C@@]5(C)CCC(=O)C(C)(C)[C@@H]5CC[C@@]4(C)[C@]3(C)CC[C@@]12C(=O)O | 15
CC(C)=CC(=O)O[C@@H]1CC(C)(C)C[C@H]2C3=CC[C@@H]4[C@@]5(C)CCC(=O)C(C)(C)[C@@H]5CC[C@@]4(C)[C@]3(C)CC[C@@]12C(=O)O | 2
CC1(C)C[C@@H](O)[C@]2(C(=O)O)CC[C@]3(C)C(=CC[C@@H]4[C@@]5(C)C/C(=C\C=C\c6ccccc6)C(=O)C(C)(C)[C@@H]5CC[C@]43C)[C@@H]2C1 | -68

---

system: OVCAR-8; assay: Growth inhibition of human OVCAR8 cells assessed as growth inhibition at 10 uM by sulforhodamine B assay; format: functional; settings: read-out: GI
reported property: inhibition of growth at 10 µM (%)

CC1(C)C[C@@H](O)[C@]2(C(=O)O)CC[C@]3(C)C(=CC[C@@H]4[C@@]5(C)C/C(=C\C=C\c6ccccc6)C(=O)C(C)(C)[C@@H]5CC[C@]43C)[C@@H]2C1 | 57
C/C=C(/C)C(=O)O[C@@H]1CC(C)(C)C[C@H]2C3=CC[C@@H]4[C@@]5(C)CCC(=O)C(C)(C)[C@@H]5CC[C@@]4(C)[C@]3(C)CC[C@@]12C(=O)O | 36.3
C/C=C(/C)C(=O)O[C@@H]1CC(C)(C)C[C@H]2C3=CC[C@@H]4[C@@]5(C)CC[C@H](O)C(C)(C)[C@@H]5CC[C@@]4(C)[C@]3(C)CC[C@@]12C(=O)O | 42.3

---

system: UACC-257; assay: Growth inhibition of human UACC257 cells assessed as growth inhibition at 10 uM by sulforhodamine B assay; type: functional; conditions: read-out: GI
reported property: inhibition of growth at 10 µM

CC(C)=CC(=O)O[C@@H]1CC(C)(C)C[C@H]2C3=CC[C@@H]4[C@@]5(C)CC[C@H](O)C(C)(C)[C@@H]5CC[C@@]4(C)[C@]3(C)CC[C@@]12C(=O)O | < 10%
C/C=C(/C)C(=O)O[C@@H]1CC(C)(C)C[C@H]2C3=CC[C@@H]4[C@@]5(C)CC[C@H](O)C(C)(C)[C@@H]5CC[C@@]4(C)[C@]3(C)CC[C@@]12C(=O)O | 39.4%
COc1cc(/C=C2\C[C@]3(C)[C@H]4CC=C5[C@@H]6CC(C)(C)C[C@@H](O)[C@]6(C(=O)O)CC[C@@]5(C)[C@]4(C)CC[C@H]3C(C)(C)C2=O)ccc1O | < 10%
CC1(C)C[C@@H](O)[C@]2(C(=O)O)CC[C@]3(C)C(=CC[C@@H]4[C@@]5(C)C/C(=C\C=C\c6ccccc6)C(=O)C(C)(C)[C@@H]5CC[C@]43C)[C@@H]2C1 | 38%
CC1(C)C[C@@H](O)[C@]2(C(=O)O)CC[C@]3(C)C(=CC[C@@H]4[C@@]5(C)CC[C@H](O)C(C)(C)[C@@H]5CC[C@]43C)[C@@H]2C1 | < 10%
CC1(C)C[C@@H](O)[C@]2(C(=O)O)CC[C@]3(C)C(=CC[C@@H]4[C@@]5(C)CCC(=O)C(C)(C)[C@@H]5CC[C@]43C)[C@@H]2C1 | < 10%
CC(C)=CC(=O)O[C@@H]1CC(C)(C)C[C@H]2C3=CC[C@@H]4[C@@]5(C)CCC(=O)C(C)(C)[C@@H]5CC[C@@]4(C)[C@]3(C)CC[C@@]12C(=O)O | 26.1%
C/C=C(/C)C(=O)O[C@@H]1CC(C)(C)C[C@H]2C3=CC[C@@H]4[C@@]5(C)CCC(=O)C(C)(C)[C@@H]5CC[C@@]4(C)[C@]3(C)CC[C@@]12C(=O)O | 30%

---

Quick reference: growth at 1 µM of the listed items.
system: SK-MEL-2; assay: Growth inhibition of human SK-MEL-2 cells assessed as cell growth at 10^-6 M by sulforhodamine B assay; format: functional; conditions: read-out: Activity
reported property: growth at 1 µM (%)

CC1(C)C[C@@H](O)[C@]2(C(=O)O)CC[C@]3(C)C(=CC[C@@H]4[C@@]5(C)C/C(=C\C=C\c6ccccc6)C(=O)C(C)(C)[C@@H]5CC[C@]43C)[C@@H]2C1 | 100
CC(C)=CC(=O)O[C@@H]1CC(C)(C)C[C@H]2C3=CC[C@@H]4[C@@]5(C)CC[C@H](O)C(C)(C)[C@@H]5CC[C@@]4(C)[C@]3(C)CC[C@@]12C(=O)O | 107
C/C=C(/C)C(=O)O[C@@H]1CC(C)(C)C[C@H]2C3=CC[C@@H]4[C@@]5(C)CCC(=O)C(C)(C)[C@@H]5CC[C@@]4(C)[C@]3(C)CC[C@@]12C(=O)O | 108
C/C=C(/C)C(=O)O[C@@H]1CC(C)(C)C[C@H]2C3=CC[C@@H]4[C@@]5(C)CC[C@H](O)C(C)(C)[C@@H]5CC[C@@]4(C)[C@]3(C)CC[C@@]12C(=O)O | 109
CC(C)=CC(=O)O[C@@H]1CC(C)(C)C[C@H]2C3=CC[C@@H]4[C@@]5(C)CCC(=O)C(C)(C)[C@@H]5CC[C@@]4(C)[C@]3(C)CC[C@@]12C(=O)O | 85

---

Measured growth at 1 µM, listed per entry.
tested on: MOLT-4; assay: Growth inhibition of human MOLT4 cells assessed as cell growth at 10^-6 M by sulforhodamine B assay; assay type: functional; details: read-out: Activity
reported property: growth at 1 µM (%)

CC1(C)C[C@@H](O)[C@]2(C(=O)O)CC[C@]3(C)C(=CC[C@@H]4[C@@]5(C)C/C(=C\C=C\c6ccccc6)C(=O)C(C)(C)[C@@H]5CC[C@]43C)[C@@H]2C1 | 89
C/C=C(/C)C(=O)O[C@@H]1CC(C)(C)C[C@H]2C3=CC[C@@H]4[C@@]5(C)CC[C@H](O)C(C)(C)[C@@H]5CC[C@@]4(C)[C@]3(C)CC[C@@]12C(=O)O [Reduced Lantadene A] | 89
CC(C)=CC(=O)O[C@@H]1CC(C)(C)C[C@H]2C3=CC[C@@H]4[C@@]5(C)CC[C@H](O)C(C)(C)[C@@H]5CC[C@@]4(C)[C@]3(C)CC[C@@]12C(=O)O [Reduced Lantadene B] | 78
CC(C)=CC(=O)O[C@@H]1CC(C)(C)C[C@H]2C3=CC[C@@H]4[C@@]5(C)CCC(=O)C(C)(C)[C@@H]5CC[C@@]4(C)[C@]3(C)CC[C@@]12C(=O)O | 85
C/C=C(/C)C(=O)O[C@@H]1CC(C)(C)C[C@H]2C3=CC[C@@H]4[C@@]5(C)CCC(=O)C(C)(C)[C@@H]5CC[C@@]4(C)[C@]3(C)CC[C@@]12C(=O)O [LANTADENE A] | 89
